Attribute: binding signal
- Measured on: AGO2 T357M (Homo sapiens, UniProt Q9UKV8 1-859, T357M;S387D;S824A;S828D;S831D;S834A)
- Sequence (Q9UKV8 whole entry T357M/S387D/S824A/S828D/S831D/S834A): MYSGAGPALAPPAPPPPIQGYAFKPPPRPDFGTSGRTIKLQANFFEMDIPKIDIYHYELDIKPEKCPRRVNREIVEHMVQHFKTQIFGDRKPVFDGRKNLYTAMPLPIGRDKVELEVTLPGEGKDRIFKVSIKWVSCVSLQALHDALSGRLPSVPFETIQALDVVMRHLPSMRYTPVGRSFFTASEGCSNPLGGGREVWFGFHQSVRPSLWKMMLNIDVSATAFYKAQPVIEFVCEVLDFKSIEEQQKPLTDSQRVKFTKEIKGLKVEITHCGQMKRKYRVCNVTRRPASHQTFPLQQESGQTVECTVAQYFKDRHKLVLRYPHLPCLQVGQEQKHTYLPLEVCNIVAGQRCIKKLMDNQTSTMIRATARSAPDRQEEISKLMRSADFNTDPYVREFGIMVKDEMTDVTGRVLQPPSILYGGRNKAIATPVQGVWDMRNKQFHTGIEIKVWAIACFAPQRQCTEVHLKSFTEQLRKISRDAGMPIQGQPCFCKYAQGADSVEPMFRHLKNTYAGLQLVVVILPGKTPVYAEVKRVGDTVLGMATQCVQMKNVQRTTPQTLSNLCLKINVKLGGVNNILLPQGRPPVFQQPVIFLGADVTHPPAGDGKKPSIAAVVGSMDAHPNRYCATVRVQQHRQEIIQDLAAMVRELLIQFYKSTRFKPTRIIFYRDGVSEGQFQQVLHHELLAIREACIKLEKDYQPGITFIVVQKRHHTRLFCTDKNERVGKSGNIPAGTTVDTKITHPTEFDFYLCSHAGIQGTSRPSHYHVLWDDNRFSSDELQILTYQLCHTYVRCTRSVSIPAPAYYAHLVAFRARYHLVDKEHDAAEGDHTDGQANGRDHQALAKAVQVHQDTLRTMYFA
- Test summary: RNA Bind-n-Seq (nitrocellulose filter binding and sequencing); miR-122 guide loaded in AGO2; 60 min incubation; 30 mM Tris pH 8.0, 100 mM potassium acetate, 2 mM magnesium acetate, 0.5 mM TCEP, 0.005% NP-40, 0.01 mg/ml yeast tRNA; 3 nM AGO2-miR-122, 100 nM RNA library; 60; high values mean tight binding
- Assay conditions: protein: recombinant; tags: His6 (N-terminal, pFastBac HTA)

Known results for binders:
GCGCCTCG (ssRNA, constant regions annealed to DNA blockers; guide miR-122 5' phosphate) RNA 1: GAGUUCUACAGUCCGACGAUCCCAACGCGCCUCGCACCUGGAAUUCUCGGGUGCCAA RNA 2: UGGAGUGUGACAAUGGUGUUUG DNA 1: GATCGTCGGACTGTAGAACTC DNA 2: TTGGCACCCGAGAATTCCA    0.55 fold enrichment over input
GTACTCCA (ssRNA, constant regions annealed to DNA blockers; guide miR-122 5' phosphate) RNA 1: GAGUUCUACAGUCCGACGAUCCCAACGUACUCCACACCUGGAAUUCUCGGGUGCCAA RNA 2: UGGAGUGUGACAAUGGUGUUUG DNA 1: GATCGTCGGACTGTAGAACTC DNA 2: TTGGCACCCGAGAATTCCA    0.965 fold enrichment over input
GCATCTTG (ssRNA, constant regions annealed to DNA blockers; guide miR-122 5' phosphate) RNA 1: GAGUUCUACAGUCCGACGAUCCCAACGCAUCUUGCACCUGGAAUUCUCGGGUGCCAA RNA 2: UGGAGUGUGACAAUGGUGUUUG DNA 1: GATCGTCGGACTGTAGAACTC DNA 2: TTGGCACCCGAGAATTCCA    0.425 fold enrichment over input
GTGTCCCA (ssRNA, constant regions annealed to DNA blockers; guide miR-122 5' phosphate) RNA 1: GAGUUCUACAGUCCGACGAUCCCAACGUGUCCCACACCUGGAAUUCUCGGGUGCCAA RNA 2: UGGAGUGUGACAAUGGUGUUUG DNA 1: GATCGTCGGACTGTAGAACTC DNA 2: TTGGCACCCGAGAATTCCA    0.602 fold enrichment over input
GCATCTTA (ssRNA, constant regions annealed to DNA blockers; guide miR-122 5' phosphate) RNA 1: GAGUUCUACAGUCCGACGAUCCCAACGCAUCUUACACCUGGAAUUCUCGGGUGCCAA RNA 2: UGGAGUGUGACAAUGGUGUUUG DNA 1: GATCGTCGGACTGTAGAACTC DNA 2: TTGGCACCCGAGAATTCCA    0.676 fold enrichment over input

Prompt line: Consider the binder ACGTTTTG (ssRNA, constant regions annealed to DNA blockers; guide miR-122 5' phosphate) RNA 1: GAGUUCUACAGUCCGACGAUCCCAACACGUUUUGCACCUGGAAUUCUCGGGUGCCAA RNA 2: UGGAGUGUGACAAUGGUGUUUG DNA 1: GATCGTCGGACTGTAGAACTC DNA 2: TTGGCACCCGAGAATTCCA and give its measured binding signal.
Response line: 0.495 fold enrichment over input

Prompt line: Consider the binder GTGTCTTA (ssRNA, constant regions annealed to DNA blockers; guide miR-122 5' phosphate) RNA 1: GAGUUCUACAGUCCGACGAUCCCAACGUGUCUUACACCUGGAAUUCUCGGGUGCCAA RNA 2: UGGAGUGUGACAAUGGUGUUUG DNA 1: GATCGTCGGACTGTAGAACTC DNA 2: TTGGCACCCGAGAATTCCA and give its measured binding signal.
Response line: 0.599 fold enrichment over input

Prompt line: Consider the binder ATGTTTCG (ssRNA, constant regions annealed to DNA blockers; guide miR-122 5' phosphate) RNA 1: GAGUUCUACAGUCCGACGAUCCCAACAUGUUUCGCACCUGGAAUUCUCGGGUGCCAA RNA 2: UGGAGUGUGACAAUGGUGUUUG DNA 1: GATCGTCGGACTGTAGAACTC DNA 2: TTGGCACCCGAGAATTCCA and give its measured binding signal.
Response line: 0.462 fold enrichment over input
